EXPERIMENT: in vivo
ASSAY_SETUP: dog, iv, 0.4 mg/kg
READOUT_KIND: Vd (L/kg)
# unit: L/kg | format: bare number

### Prompt Endpoint output: Vd of Nc1noc2ccc(-n3nc(C(F)(F)F)cc3C(=O)Nc3ccc(-c4ccccc4CN4CCCC4)cc3F)cc12 . Value?
### Response 23

---

EXPERIMENT: in vivo
ASSAY_SETUP: dog, po, 0.2 mg/kg
READOUT_KIND: bioavailability (%)
# unit: % | format: bare number

### Prompt Endpoint output: bioavailability of Nc1noc2ccc(-n3nc(C(F)(F)F)cc3C(=O)Nc3ccc(-c4ccccc4CN4CCCC4)cc3F)cc12 . Value?
### Response 64

---

EXPERIMENT: in vivo
ASSAY_SETUP: dog
READOUT_KIND: half-life (h)
# unit: h | format: bare number

### Prompt Endpoint output: half-life of Nc1noc2ccc(-n3nc(C(F)(F)F)cc3C(=O)Nc3ccc(-c4ccccc4CN4CCCC4)cc3F)cc12 . Value?
### Response 10
